Values compiled from patent US8952024B2.

Test system: goosegrass (Eleusine indica)
Experiment: Test B pre-/postemergence plant response
Format: in vivo
Settings: Postemergence, 31 g ai/ha; 0 to 100 scale (0 no effect, 100 complete control)
Text: […] Treated plants and controls were maintained in a greenhouse for 13 to 15 days, after which time all treated plants were visually evaluated and compared to controls. […]
assay readout: Plant response rating, Goosegrass
Just the number, please, no unit attached.

Problem: Item "CCCn1c(-c2cccc(C(F)(F)F)c2)ncc(C(=O)C2=C(O)CCCC2=O)c1=O" with goosegrass (Eleusine indica) - Plant response rating, Goosegrass?
Solution: 65

Problem: Missing value: Plant response rating, Goosegrass, goosegrass (Eleusine indica), entry COCCn1c(-c2cccc(C)c2)ncc(C(=O)C2=C(O)C3CCC(C3)C2=O)c1=O (stereo not shown) . Fill in?
Solution: 85

Problem: Enter reported Plant response rating, Goosegrass observed with goosegrass (Eleusine indica) for "CCCn1c(-c2cc(C)cc(C)c2)ncc(C(=O)C2=C(O)CCCC2=O)c1=O"
Solution: 65

Problem: Kindly state the measured Plant response rating, Goosegrass obtained for "CCc1ccccc1-n1c(-c2ccccc2)ncc(C(=O)C2=C(O)CCCC2=O)c1=O" with goosegrass (Eleusine indica).
Solution: 90

Problem: I'm curious: which Plant response rating, Goosegrass was measured for "O=C1CCCC(O)=C1C(=O)c1cnc(-c2ccc(F)cc2)n(C2CCCCC2)c1=O" tested on goosegrass (Eleusine indica)?
Solution: 85

Problem: Short answer please: Plant response rating, Goosegrass, goosegrass (Eleusine indica), entry "CCCn1c(-c2cccc(Cl)c2)ncc(C(=O)C2=C(O)CCCC2=O)c1=O"
Solution: 70

Problem: Give recorded Plant response rating, Goosegrass with goosegrass (Eleusine indica) for the following compound: CCCn1c(-c2ccsc2)ncc(C(=O)C2=C(O)C3CCC(C3)C2=O)c1=O (stereo not shown)
Solution: 75

----------
System: bermudagrass (Cynodon dactylon)
Test: Test B pre-/postemergence plant response
Type: in vivo
Details: Preemergence, 62 g ai/ha; scale 0 to 100 (0 no effect, 100 complete control)
assay readout: Plant response rating, Bermudagrass
// return a plain number; no unit text

Problem: Record request: Plant response rating, Bermudagrass value, item "CCCCc1ncc(C(=O)C2=C(O)CCCC2=O)c(=O)n1-c1cccc(C)c1"
Solution: 98

Problem: # input compound: "O=C1CCCC(O)=C1C(=O)c1cnc(-c2ccsc2)n(-c2ccccc2)c1=O" ; wanted: its Plant response rating, Bermudagrass
Solution: 100

Problem: I'd like to know its Plant response rating, Bermudagrass. The compound in question is "CCCCc1ncc(C(=O)C2=C(O)CCCC2=O)c(=O)n1-c1ccc(C)cc1"
Solution: 90

Problem: State the recorded Plant response rating, Bermudagrass for this entry: "COc1ccc(-n2c(-c3ccccc3)ncc(C(=O)C3=C(O)CCCC3=O)c2=O)cc1OC"
Solution: 100

----------
Test system: barnyardgrass (Echinochloa crus-galli)
Test: Test D pre-/postemergence plant response
Assay type: in vivo
Settings: Postemergence, 125 g ai/ha; scale 0 to 100 (0 no effect, 100 complete control)
Please go through the items and note down their Plant response rating, Barnyardgrass.
Note: the reply should be a number with no unit written.

Problem: I'd like to know its Plant response rating, Barnyardgrass. The molecule in question is COCCn1c(-c2cc(F)cc(F)c2)ncc(C(=O)C2=C(O)C3CCC(C3)C2=O)c1=O (stereo not shown)
Solution: 80

Problem: So what does the record say about Plant response rating, Barnyardgrass for COCCn1c(-c2cccc(C)c2)ncc(C(=O)C2=C(O)C3CCC(C3)C2=O)c1=O (stereo not shown) ?
Solution: 85

Problem: // returns reported Plant response rating, Barnyardgrass for input COCCn1c(-c2cccc(F)c2)ncc(C(=O)C2=C(O)C3CCC(C3)C2=O)c1=O (stereo not shown)
Solution: 95

Problem: Name the recorded Plant response rating, Barnyardgrass for O=C1CCCC(O)=C1C(=O)c1cnc(-c2ccccc2)n(CC2CCCO2)c1=O (stereo not shown) .
Solution: 75
